B1: 5KPH (parent)
chain: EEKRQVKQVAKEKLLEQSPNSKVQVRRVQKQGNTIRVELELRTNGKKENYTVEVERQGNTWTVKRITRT

variants of: B1; experiment: folding stability dG (cDNA display proteolysis); higher = more stable; settings: PBS, room temperature
The following variants are shown together with reported folding stability dG values.
Write down the numeric answer in kJ/mol and omit the unit.

Solved entries:
| variant annotation | readout unit | obs value |
| --- | --- | --- |
| T60R | kJ/mol | 16.6 |
| K22S | kJ/mol | 16 |
| K46R | kJ/mol | 16.8 |
| E38F | kJ/mol | 19.5 |
| E2H | kJ/mol | 14.7 |

Tell me measured folding stability dG for `K30N` please.
15.7

Tell me measured folding stability dG for `Q24H` please.
17.9

Tell me measured folding stability dG for `Q29V` please.
17.1

Tell me measured folding stability dG for `R26C` please.
15.3

Tell me measured folding stability dG for `L14H` please.
7.49

Tell me measured folding stability dG for `T34A` please.
15.1

Tell me measured folding stability dG for `V54L` please.
16.5

Tell me measured folding stability dG for `R42M` please.
16.1

Tell me measured folding stability dG for `S18C` please.
16.2

Tell me measured folding stability dG for `E38V` please.
16.1

Tell me measured folding stability dG for `K22V` please.
16.8

Tell me measured folding stability dG for `N33Y` please.
14.6

Tell me measured folding stability dG for `G58F` please.
14.3
